- Tested on: Bacillus subtilis NCTC 8236
Quantity Name: MIC (µg/mL)

Below are worked cases with known answers.
{"Smiles Representation": "CC[C@H]1OC(=O)[C@H](C)[C@@H](O[C@H]2C[C@@](C)(OC)[C@@H](O)[C@H](C)O2)[C@H](C)[C@@H](O[C@@H]2O[C@H](C)C[C@H](N(C)C)[C@H]2O)[C@](C)(O)C[C@@H](C)CN(C(=O)Nc2ccccc2)[C@H](C)[C@@H](O)[C@]1(C)O", "Tgt": "Bacillus subtilis NCTC 8236", "Unit Label": "µg/mL", "Recorded Value": 6.25}
{"Smiles Representation": "CC[C@H]1OC(=O)[C@H](C)[C@@H](O[C@H]2C[C@@](C)(OC)[C@@H](O)[C@H](C)O2)[C@H](C)[C@@H](O[C@@H]2O[C@H](C)C[C@H](N(C)C)[C@H]2O)[C@](C)(O)C[C@@H](C)CN(C(=O)NC(C)C)[C@H](C)[C@@H](O)[C@]1(C)O", "Tgt": "Bacillus subtilis NCTC 8236", "Unit Label": "µg/mL", "Recorded Value": 1.56}

[P] CC[C@H]1OC(=O)[C@H](C)[C@@H](O[C@H]2C[C@@](C)(OC)[C@@H](O)[C@H](C)O2)[C@H](C)[C@@H](O[C@@H]2O[C@H](C)C[C@H](N(C)C)[C@H]2O)[C@](C)(O)C[C@@H](C)CN[C@H](C)[C@@H](O)[C@]1(C)O
[Q] CC[C@H]1OC(=O)[C@H](C)[C@@H](O[C@H]2C[C@@](C)(OC)[C@@H](O)[C@H](C)O2)[C@H](C)[C@@H](O[C@@H]2O[C@H](C)C[C@H](N(C)C)[C@H]2O)[C@](C)(O)C[C@@H](C)CN(C(=O)NCc2ccccc2)[C@H](C)[C@@H](O)[C@]1(C)O
[R] CC[C@H]1OC(=O)[C@H](C)[C@@H](O[C@H]2C[C@@](C)(OC)[C@@H](O)[C@H](C)O2)[C@H](C)[C@@H](O[C@@H]2O[C@H](C)C[C@H](N(C)C)[C@H]2O)[C@](C)(O)C[C@@H](C)CN(C(=S)NCc2ccccc2)[C@H](C)[C@@H](O)[C@]1(C)O
Prompt: Returns the items ordered by MIC, from maximum to minimum. Form entry: labels listed in requested order.
Completion: P, Q, R

Data credit: patent US5629296A
